Overview of reported MIC across a group of compounds:
# Tested on: Staphylococcus epidermidis
# EXPERIMENT_SUMMARY: Minimal inhibitory concentration against methicillin resistant Staphylococcus epidermidis ATCC 23760
# Type: functional
ATTRIBUTE_MEASURED: MIC (µg/mL)

[[record]]
compound = "CC(=O)NC[C@H]1CN(c2ccc(N3CCOCC3)c(F)c2)C(=O)O1"
attribute_measured = "MIC"
uom = "µg/mL"
value_comparator = "="
reading = 2

[[record]]
compound = "CC(=O)Nc1ccc(Sc2ccc(N3C[C@H](C/N=C(\\N)S)OC3=O)cc2F)cc1"
attribute_measured = "MIC"
uom = "µg/mL"
value_comparator = "="
reading = 2

[[record]]
compound = "CO/C(S)=N\\C[C@H]1CN(c2ccc(Oc3ccc(NC(C)=O)cc3)c(F)c2)C(=O)O1"
attribute_measured = "MIC"
uom = "µg/mL"
value_comparator = "="
reading = 16

[[record]]
compound = "CC(=O)NC[C@H]1CN(c2ccc(Oc3ccc(NC(C)=O)cc3)c(F)c2)C(=O)O1"
attribute_measured = "MIC"
uom = "µg/mL"
value_comparator = "="
reading = 4

[[record]]
compound = "CC(=O)Nc1ccc(Oc2ccc(N3C[C@H](C/N=C(/S)NN)OC3=O)cc2F)cc1"
attribute_measured = "MIC"
uom = "µg/mL"
value_comparator = "="
reading = 8

[[record]]
compound = "CC(=O)NC[C@H]1CN(c2ccc(Sc3ccc(NC(C)=O)cc3)c(F)c2)C(=O)O1"
attribute_measured = "MIC"
uom = "µg/mL"
value_comparator = "="
reading = 2

[[record]]
compound = "CO/C(S)=N\\C[C@H]1CN(c2ccc(Sc3ccc(NC(C)=O)cc3)c(F)c2)C(=O)O1"
attribute_measured = "MIC"
uom = "µg/mL"
value_comparator = "="
reading = 8

[[record]]
compound = "CC(=O)NC[C@H]1CN(c2ccc(Oc3ccccc3NC(C)=O)c(F)c2)C(=O)O1"
attribute_measured = "MIC"
uom = "µg/mL"
value_comparator = ">"
reading = 16

[[record]]
compound = "CC(=O)Nc1ccc(Oc2ccc(N3C[C@H](C/N=C(/S)N(C)C)OC3=O)cc2F)cc1"
attribute_measured = "MIC"
uom = "µg/mL"
value_comparator = "="
reading = 16

[[record]]
compound = "CC(=O)Nc1ccc(Sc2ccc(N3C[C@H](C/N=C(/S)N(C)C)OC3=O)cc2F)cc1"
attribute_measured = "MIC"
uom = "µg/mL"
value_comparator = "="
reading = 16

[[record]]
compound = "CC(=O)Nc1ccc(Oc2ccc(N3C[C@H](C/N=C(\\N)S)OC3=O)cc2F)cc1"
attribute_measured = "MIC"
uom = "µg/mL"
value_comparator = "="
reading = 4

[[record]]
compound = "CC(=O)Nc1ccc(Sc2ccc(N3C[C@H](C/N=C(/S)NN)OC3=O)cc2F)cc1"
attribute_measured = "MIC"
uom = "µg/mL"
value_comparator = "="
reading = 4

[[record]]
compound = "CC(=O)NC[C@H]1CN(c2ccc(Oc3cccc(NC(C)=O)c3)c(F)c2)C(=O)O1"
attribute_measured = "MIC"
uom = "µg/mL"
value_comparator = ">"
reading = 16

[[record]]
compound = "CC(=O)Nc1ccc(Oc2ccc(N3C[C@H](C/N=C(/S)NC4CC4)OC3=O)cc2F)cc1"
attribute_measured = "MIC"
uom = "µg/mL"
value_comparator = "="
reading = 16

[[record]]
compound = "CC(=O)Nc1ccc(Sc2ccc(N3C[C@H](C/N=C(/S)NC4CC4)OC3=O)cc2F)cc1"
attribute_measured = "MIC"
uom = "µg/mL"
value_comparator = "="
reading = 8


Origin of the recorded values: ChEMBL document CHEMBL1137831
